TESTED ON: NIH3T3 cells expressing the full length KDR receptor (Homo sapiens)
Construct: NIH3T3 cells expressing the full length KDR receptor
Sequence (P35968 20-1356): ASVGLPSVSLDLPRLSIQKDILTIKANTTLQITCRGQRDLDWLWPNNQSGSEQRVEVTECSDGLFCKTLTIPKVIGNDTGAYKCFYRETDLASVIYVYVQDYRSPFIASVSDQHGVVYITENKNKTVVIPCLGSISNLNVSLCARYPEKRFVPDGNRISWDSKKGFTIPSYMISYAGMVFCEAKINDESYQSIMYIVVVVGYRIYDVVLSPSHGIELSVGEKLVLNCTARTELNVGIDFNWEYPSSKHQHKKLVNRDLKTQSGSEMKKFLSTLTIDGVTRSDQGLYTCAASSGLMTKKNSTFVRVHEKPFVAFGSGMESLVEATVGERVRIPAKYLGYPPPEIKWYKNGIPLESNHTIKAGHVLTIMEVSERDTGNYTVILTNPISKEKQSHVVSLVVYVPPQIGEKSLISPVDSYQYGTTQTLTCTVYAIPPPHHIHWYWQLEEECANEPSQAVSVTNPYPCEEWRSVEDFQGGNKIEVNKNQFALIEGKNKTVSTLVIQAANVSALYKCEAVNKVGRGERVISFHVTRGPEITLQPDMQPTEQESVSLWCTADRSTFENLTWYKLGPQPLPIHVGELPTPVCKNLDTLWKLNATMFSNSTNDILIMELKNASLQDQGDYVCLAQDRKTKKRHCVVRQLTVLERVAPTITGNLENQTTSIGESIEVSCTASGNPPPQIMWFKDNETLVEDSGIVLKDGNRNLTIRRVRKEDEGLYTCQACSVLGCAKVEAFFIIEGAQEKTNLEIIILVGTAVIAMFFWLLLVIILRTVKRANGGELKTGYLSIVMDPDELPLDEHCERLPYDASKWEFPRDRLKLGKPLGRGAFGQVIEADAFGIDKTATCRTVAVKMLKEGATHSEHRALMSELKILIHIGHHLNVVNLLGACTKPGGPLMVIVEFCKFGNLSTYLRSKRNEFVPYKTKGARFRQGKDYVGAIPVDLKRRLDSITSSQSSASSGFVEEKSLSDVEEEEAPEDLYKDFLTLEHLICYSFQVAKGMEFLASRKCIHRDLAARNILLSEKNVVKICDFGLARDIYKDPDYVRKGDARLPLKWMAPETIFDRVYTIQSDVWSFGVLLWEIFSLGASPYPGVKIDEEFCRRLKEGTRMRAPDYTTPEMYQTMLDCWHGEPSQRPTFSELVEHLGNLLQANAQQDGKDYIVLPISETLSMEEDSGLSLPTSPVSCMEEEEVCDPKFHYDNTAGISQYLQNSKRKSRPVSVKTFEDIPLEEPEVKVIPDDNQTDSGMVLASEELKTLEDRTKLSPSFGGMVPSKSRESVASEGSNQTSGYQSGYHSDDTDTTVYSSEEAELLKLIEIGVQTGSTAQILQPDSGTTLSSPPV
ASSAY INFO: Cell mechanistic assay - Inhibition of 3T3 KDR phosphorylation
CONDITION NOTES: VEGF (30 ng / ml) for 10 minutes after 30 minutes with compound; KDR phosphotyrosine ELISA
pIC50: −log10 of the molar value. Structures can show the parent of a compound that is named as a salt.
Each entry below carries its recorded pIC50.

Reference set (6 entries):
> print(dat)
                                   molecule  quantity.measured  observed.value
1  CNC(=O)c1cc(Cc2nnc(Nc3ccc(Cl)cc3)c3ccccc23)ccn1 [Example 12, dimethanesulfonate]              pIC50    7.30 to 7.70
2  CNC(=O)c1cc(Cc2nnc(Nc3ccc(Cl)cc3)c3ccccc23)ccn1 [Example 1]              pIC50    7.30 to 7.70
3  Clc1ccc(Nc2nnc(Cc3ccnc(-c4ccccc4)c3)c3ccccc23)cc1 [Example 8]              pIC50    7.30 to 7.70
4  NC(=O)c1cc(Cc2nnc(Nc3ccc(Cl)cc3)c3ccccc23)ccn1 [Example 13, dihydrochloride]              pIC50    7.30 to 7.70
5  NC(=O)c1cc(Cc2nnc(Nc3ccc(Cl)cc3)c3ccccc23)ccn1 [Example 14, dimethanesulfonate]              pIC50    7.30 to 7.70
6  NC(=O)c1cc(COc2nnc(Nc3ccc(Cl)cc3)c3ccccc23)ccn1 [Example 16, dimethanesulfonate]              pIC50          > 7.70

Please report the recorded pIC50 for NC(=O)c1cc(Cc2nnc(Nc3ccc(Cl)cc3)c3ccccc23)ccn1 [Example 2] . > 7.70

---

Each entry below carries its recorded pIC50.
TESTED ON: cytosolic kinase domain of KDR kinase (Homo sapiens)
Construct: The cytosolic kinase domain of KDR kinase was expressed as a 6His fusion protein in Sf9 insect cells; 6His
Sequence (P35968 834-1162 limits assumed): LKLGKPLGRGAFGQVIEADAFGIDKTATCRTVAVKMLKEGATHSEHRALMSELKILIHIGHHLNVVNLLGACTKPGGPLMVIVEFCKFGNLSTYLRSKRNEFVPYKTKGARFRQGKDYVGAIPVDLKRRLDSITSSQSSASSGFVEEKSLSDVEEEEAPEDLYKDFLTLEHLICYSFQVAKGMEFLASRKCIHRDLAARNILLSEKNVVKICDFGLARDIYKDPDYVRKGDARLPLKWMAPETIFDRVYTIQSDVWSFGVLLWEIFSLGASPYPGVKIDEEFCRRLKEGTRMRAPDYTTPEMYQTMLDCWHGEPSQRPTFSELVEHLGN
ASSAY INFO: KDR Assay (ELISA, phosphorylation of poly(Glu4;Tyr1))
CONDITION NOTES: 3.3 µM ATP, 60 minutes at room temperature, 30 ng KDR kinase domain
pIC50: −log10 of the molar value.

> print(dat)
                                   compound  observed.value
1  NC(=O)c1cc(Cc2nnc(Nc3cccc(Br)c3)c3ccccc23)ccn1          > 7.00

Value wanted: pIC50 (cytosolic kinase domain of KDR kinase (Homo sapiens)) of entry `Clc1ccc(Nc2nnc(OCc3cccnc3)c3ccccc23)cc1` < 6.00

Value wanted: pIC50 (cytosolic kinase domain of KDR kinase (Homo sapiens)) of entry `Clc1ccc(Nc2nnc(Sc3nnc(-c4ccncc4)[nH]3)c3ccccc23)cc1` < 6.00

Value wanted: pIC50 (cytosolic kinase domain of KDR kinase (Homo sapiens)) of entry N#CC(c1ccncc1)c1nnc(Nc2ccc3c(c2)CCC3)c2ccccc12 (centres unmarked) 6.00 to 7.00

Value wanted: pIC50 (cytosolic kinase domain of KDR kinase (Homo sapiens)) of entry `CC(C)c1ccc(Nc2nnc(Sc3nnc(-c4ccncc4)[nH]3)c3ccccc23)cc1` < 6.00

Cited source: patent EP1208096B1
